Taken from patent US20170267766A1.

Measured EC50, listed per entry.
- MEASURED_ON: T1, human IGF-1R (native, on cells) (human, UniProt P08069 31-1367)
- T1 construct: also called hIGF-1R; native IGF-1R on MCF-7 cells
- ASSAY_METHOD_TEXT: FACS titration, MCF-7

| BINDER | ENDPOINT_UNIT | EC50 |
| --- | --- | --- |
| hz208F2 H077/L018 (antibody, human IgG1, kappa, V domains shown, humanized 208F2 variant) VH: QVQLVQSGAEVKKPGASVKVSCKASGYTFTSYYIHWVRQAPGQGLEWMGWIWPGDGSTKYAQKFQGRVTMTRDTSTSTVYMELSSLRSEDTAVYFCASPMITPNYAMDYWGQGTLVTVSS VL: DIQMTQSPSSLSASVGDRVTITCRASQDISKYLNWYQQKPGKAPKLLIYYTSRLQSGVPSRFSGRGSGTDYSLTISSLQPEDFATYFCQQGSTLPYTFGGGTKVEIKR | nM | 0.77 |
| hz208F2 H071/L018 (antibody, human IgG1, kappa, V domains shown, humanized 208F2 variant) VH: QVQLVQSGAEVKKPGASVKVSCKASGYTFTSYYMHWVRQAPGQGLEWMGWIWPGDGSTKYAQKFQGRVTMTRDTSTNTVYMELSSLRSEDTAVYYCASPMITPNYAMDYWGQGTLVTVSS VL: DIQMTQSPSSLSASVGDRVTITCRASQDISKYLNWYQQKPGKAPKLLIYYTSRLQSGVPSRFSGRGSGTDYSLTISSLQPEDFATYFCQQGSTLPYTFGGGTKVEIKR | nM | 0.55 |
